# credit: ChEMBL document CHEMBL1157539

Tested on: Plasmodium falciparum
TEST_DESCRIPTION: GSK_TCMDC: Inhibition of Plasmodium falciparum 3D7 in whole red blood cells, using parasite LDH activity as an index of growth. Test compounds present at 2uM
Type: functional
QUANTITY_NAME: Inhibition (%)
Response body: numeric value in %, unit text excluded.

State the recorded Inhibition for this entry: `CCNc1cc(C(=O)N[C@@H](Cc2ccccc2)[C@H](O)CNCCc2cc(OC)cc(OC)c2)cc(N2CCCCS2(=O)=O)c1.Cl`
89

State the recorded Inhibition for this entry: `O=C(Nc1cccc(-c2cccc(-c3nc4cc(F)ccc4[nH]3)c2)c1)c1csnn1`
95

State the recorded Inhibition for this entry: `Cc1cccc(NC(=O)N(Cc2cc3cc(C)cc(C)c3[nH]c2=O)C2CC2)c1`
97

State the recorded Inhibition for this entry: COc1ccc(Br)cc1C1Nc2ccc3ccccc3c2C2=C1C(=O)CC(c1ccccc1)C2 (centres undefined)
100

State the recorded Inhibition for this entry: `O=C(C=Cc1ccc(Cl)c(Cl)c1)NCCCCCN1CCC(CCNS(=O)(=O)c2ccc(Br)cc2)CC1`
91

State the recorded Inhibition for this entry: `Cl.O=c1cc(NCCCNCc2scc(I)c2I)[nH]c2ccccc12`
100

State the recorded Inhibition for this entry: Cc1ccc(NC(=O)C(C)Sc2nnc(-c3ccccc3Br)[nH]2)cc1 (centres undefined)
89

State the recorded Inhibition for this entry: `Cc1cccc2nc(-c3ccc(-c4cccc(CN5CCC(C(N)=O)CC5)c4)s3)[nH]c12.O=C(O)C(F)(F)F`
86

State the recorded Inhibition for this entry: `O=C(/C=C/c1ccc(-c2ccccc2)cc1)NCCCCCN1CCC(c2c[nH]c3ccccc23)CC1`
97

State the recorded Inhibition for this entry: `CC(C)n1ncc2c(C(=O)N3CCCc4ccccc43)cc(-c3ccccc3)nc21`
100

State the recorded Inhibition for this entry: `CCn1c(-c2nonc2N)nc2c(-c3cccc(NC(=O)NC45CC6CC(CC(C6)C4)C5)c3)ncc(OCCCN)c21.O=C(O)C(F)(F)F`
94

State the recorded Inhibition for this entry: `Cc1ccc(C(C)C)c(Oc2ccc3nc(N)nc(N)c3c2)c1`
96

State the recorded Inhibition for this entry: `Cc1nnc2c(NC(=O)NC3CCCC3)cc3ccc(-c4cccc(CN(C)C)c4)cc3n12`
90

State the recorded Inhibition for this entry: `CN(C)CCN(C)Cc1ccc(-c2ccc3c(Nc4ccc(Cl)cc4F)ccnc3c2)o1`
100

State the recorded Inhibition for this entry: `CC(C)(CNC(=O)C1CCN(Cc2ccc(Cl)cc2)CC1)c1nc(-c2ccc(Cl)c(O)c2)c(-c2ccncc2)[nH]1.Cl`
100

State the recorded Inhibition for this entry: Brc1ccc(Nc2nc(NCC3CCCO3)c3ccccc3n2)cc1 (centres undefined)
100

State the recorded Inhibition for this entry: `Cc1nc2ccc3nc(NC(=O)c4ccno4)sc3c2s1`
99

State the recorded Inhibition for this entry: `COc1cc2nc(Nc3ccc4c(c3)OCCO4)nc(N)c2cc1OC.Cl`
100

State the recorded Inhibition for this entry: `O=C(NC1CC1)c1ccc(N2CCC(c3ccccc3)CC2)nc1.O=C(O)C(F)(F)F`
93

###

Task for the reader: assign each of the following compounds its reported Inhibition.
Test system: Plasmodium falciparum
TEST_DESCRIPTION: GSK_TCMDC: Inhibition of Plasmodium falciparum 3D7 in whole red blood cells, using parasite LDH activity as an index of growth. Test compounds present at 2uM
Format: functional
Response body: numeric value in %, unit text excluded.

State the recorded Inhibition for this entry: CCC(C)CN1CCCN(c2ccc(NC(=O)c3cccs3)cc2)CC1.O=C(O)C(F)(F)F (configuration not stated)
91

State the recorded Inhibition for this entry: `CN1CCN(c2cccc(-c3nnc(-c4cccc(OCC(=O)NCc5ccc(C(F)(F)F)cc5)c4)o3)c2)CC1`
98

State the recorded Inhibition for this entry: `Cc1cc(NCCC(=O)NCc2cccc(F)c2)nc(Nc2ccccc2)n1.O=C(O)C(F)(F)F`
94

State the recorded Inhibition for this entry: `COc1ccc(-c2ccc3c(-c4cccc(S(C)(=O)=O)c4)cnc(N)c3c2)cc1`
89

State the recorded Inhibition for this entry: `C[C@@H](C(=O)N1CCOCC1)N1CC[C@H](NS(=O)(=O)c2ccc3ccnc(N)c3c2)C1=O.O=CO`
84

State the recorded Inhibition for this entry: `COc1ccc(NC2=C(c3ccccc3)C(=O)c3ccccc32)cn1`
96

State the recorded Inhibition for this entry: `Cc1cc(C)c(NC(=O)NC2CCN(CCCCCNC(=O)/C=C/c3ccc(Cl)c(Cl)c3)CC2)c(C)c1`
100

State the recorded Inhibition for this entry: `Cc1n[nH]c2ccc(-c3cc(OC[C@@H](N)Cc4ccccc4)cnc3-c3ccc(OCc4cccc(F)c4)cc3)cc12.O=C(O)C(F)(F)F`
98

State the recorded Inhibition for this entry: `Cc1ccc(CNC(=O)[C@H](Cc2ccccc2)Nc2ccnc(NCC3CCCCC3)n2)cc1.O=C(O)C(F)(F)F`
92

State the recorded Inhibition for this entry: `Cc1cc(N2CCC(C)CC2)nc2cc(O)ccc12`
89

State the recorded Inhibition for this entry: `COCn1ccc2c3c(N)nc(N)nc3ccc21`
88

State the recorded Inhibition for this entry: `CC1(C)N=C(NC(=O)c2cc([N+](=O)[O-])cc([N+](=O)[O-])c2)N=C(N)N1OCc1cccc2ccccc12`
94

State the recorded Inhibition for this entry: `CCCNCc1c(O)ccc2c(CNCCC)c(O)ccc12.Cl`
100

State the recorded Inhibition for this entry: `c1csc(-c2nc(N3CCCCC3)ncc2-c2ccsc2)n1`
89

State the recorded Inhibition for this entry: OC(Cn1ccnc1)(c1ccc(Cl)cc1Cl)C1CCCCC1 (configuration not stated)
98

State the recorded Inhibition for this entry: O=C(Nc1cccc(C(F)(F)F)c1)c1cccc(S(=O)(=O)NCC2CCCN(CC3CCCCC3)C2)c1.O=C(O)C(F)(F)F (configuration not stated)
99

State the recorded Inhibition for this entry: `NC(=O)COc1cccc2c1CCN(CCN1CCC(NC(=O)c3ccc(-c4ccc(Cl)cc4)cc3)CC1)C2`
92

State the recorded Inhibition for this entry: `Cc1noc(C)c1-c1cccc(CNCc2ccc(-c3ccc(-c4nc5ccccc5[nH]4)s3)cc2)c1.O=C(O)C(F)(F)F`
100

State the recorded Inhibition for this entry: `CCC(=O)Oc1ccc(NC(=O)c2cccc(OC)c2)cc1`
98

State the recorded Inhibition for this entry: `Cc1cc(N[C@@H](CC(C)C)C(=O)NCc2cccc(F)c2)nc(Nc2ccccc2)n1.O=C(O)C(F)(F)F`
100

State the recorded Inhibition for this entry: `COc1ccc(C(=O)NCc2ccccc2-c2ccc(C(C)(C)C)cc2)cc1O`
99

State the recorded Inhibition for this entry: `CCCCCCSc1nnc(COc2cccc3ccccc23)n1-c1ccc(OC)cc1`
99

State the recorded Inhibition for this entry: `C=CCNC(=O)CCCNC(=N)N.Cl`
98

State the recorded Inhibition for this entry: `c1ccc(Oc2ccc(Nc3nc(NCCc4c[nH]cn4)nc(NC4CCCC4)n3)cc2)cc1`
97

State the recorded Inhibition for this entry: `COc1ccc(Nc2nccc(-c3c(-c4cccc(NC(=O)c5c(F)cccc5F)c4)nn4ccccc34)n2)cc1Cl`
95

State the recorded Inhibition for this entry: `Cc1cc(=NN=Cc2ccc(Cl)cc2)c2cc(F)ccc2[nH]1`
100

State the recorded Inhibition for this entry: `CCN(CC)CCN(Cc1ccc(-c2ccc(C(F)(F)F)cc2)cc1)C(=O)Cn1c(CCc2cc(F)cc(F)c2)nc(=O)c2ccccc21.O=C(O)C(O)C(O)C(=O)O`
91

State the recorded Inhibition for this entry: `O=C(Nc1ccc(-c2ccccc2)cc1)Nc1cccc(Cn2ncc(N3CCNCC3)c(Cl)c2=O)c1.O=C(O)C(F)(F)F`
100

State the recorded Inhibition for this entry: `CN(C)S(=O)(=O)c1cc(-c2ccc3nccc(-c4cccc(S(N)(=O)=O)c4)c3c2)cnc1N`
100

State the recorded Inhibition for this entry: `COc1cccc(CN2CCCN(Cc3cccc(NC(=O)c4cc5ccccc5s4)c3)CC2)c1.O=C(O)C(F)(F)F`
89

State the recorded Inhibition for this entry: `Cc1cccc2[nH]c(-c3cc(-c4cn[nH]c4)cnc3N)nc12`
100

State the recorded Inhibition for this entry: `Cc1ccc(-c2nn3c(O)c4c(nc3c2C)CCCC4)cc1`
97

State the recorded Inhibition for this entry: `COc1ccc(CNC2Cc3ccccc3C2)cc1-c1ccc(S(=O)(=O)NCc2ccccc2)s1.O=C(O)C(F)(F)F`
97

State the recorded Inhibition for this entry: `CN1CCCN(c2ccnc3cc4c(cc23)N(C(=O)c2ccc(Cl)cc2)CC4)CC1.Cl`
100

State the recorded Inhibition for this entry: `Cc1cccc2nc(-c3cccc(-c4ccc(NC(=O)Nc5ccc(F)c(F)c5F)cc4)c3)[nH]c12`
100

State the recorded Inhibition for this entry: `Cc1cc(-c2c[nH]c3ncc(-c4cccc5ncccc45)cc23)ccc1C(=O)O.O=C(O)C(F)(F)F`
99

State the recorded Inhibition for this entry: COc1ccccc1N1CCN(C(C(=O)NCc2ccc3c(c2)OCO3)c2ccc(C)cc2)CC1 (configuration not stated)
85
